PROCEDURE_SUMMARY: protein stability index of a GFP-peptide fusion (GPS, HEK-293T) (PSI 1-6); higher = more stable;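 also: 24-mer peptide tiles fused after GFP, lentivirally expressed, FACS-sorted into six equal bins by GFP/DsRed ratio, decoded by Illumina sequencing, PSI is the read-weighted mean bin number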
PARTICULARS: treatment: DMSO; c terminus: a fixed tail appended
READOUT_LABEL: protein stability index
Please give the numeric answer without any surrounding text.

Use these answered entries as a reference point.
INSERT INTO results (sequence_code, readout_label, value_observed) VALUES
  ('TSVNLGILTADLYSLFVGLFLFGY [SLC35F2]', 'protein stability index', 2.93),
  ('PPDKGEEQVNFCESSNDFGPYEGG [ZBTB22]', 'protein stability index', 5.53),
  ('LLALAGAVQRLEGALWGLQAQAVQ [SCARA5]', 'protein stability index', 3.33),
  ('QDLLKERQKDLKFLSEEEYWKLQI [CCNC]', 'protein stability index', 3.45),
  ('VDGAGKPGAEEAQDPEGKGEQEHS [CHGA]', 'protein stability index', 5.56),
  ('AGGGSQENLDNDTETDSLVSAQRE [DVL3]', 'protein stability index', 5.32),
  ('MDDDFGVVKEEISDDNAKLPCFNG [DVL3]', 'protein stability index', 5.18),
  ('HQTQLLYQASAMMVESRYALLIVD [RAD51]', 'protein stability index', 3.17),
  ('EEEMRSHYVAQTGILWLLMNNCFL [GAGE1]', 'protein stability index', 3.15),
  ('SLARNPAPGVLTNKRKTYTESYIA [ZC2HC1A]', 'protein stability index', 3.22);

*Q* Specify reported protein stability index for the sequence shown: AYEFNPELVLVSAGFDAARGDPLG [HDAC6]
*A* 3.11

*Q* Output protein stability index of RADKNDDGKLSFEEFKAYFADGVL [NECAB1]
*A* 3.48

*Q* Dear colleague, please send me the reported protein stability index for DLKTLSDDIKESLESEGKNSKKEE [ATE1] when you can.
*A* 5.31

*Q* Identify protein stability index associated with the sequence IRQLQEQHYQQYMQQLYQVQLAQQ [ACBD3]
*A* 2.23

*Q* Return protein stability index (reported value) for this sequence: RRQQAKLKELQAIAERLGCTLPQL [KCNAB2]
*A* 2.99

*Q* Indicate the recorded protein stability index value for this sequence: LPPPPPPSRGGNQLPRPPIVGGNK [WAS]
*A* 5.11

*Q* State its protein stability index: ARAFAEKNGLSFIETSALDSTNVE [RAB11A]
*A* 4.28

*Q* Quick one: give measured protein stability index for EDEKQRLQNEVRQLTEKLARVNEN [SSNA1]
*A* 4.99

*Q* Assign protein stability index to the following record: ILFLPCLRKKILKIRHGWEDVTKI [STEAP1]
*A* 2.95

*Q* Given GEKPYLSPDILEEKHCEFKQLALD [ATL3] , respond with its protein stability index.
*A* 4.42

*Q* Annotate the sequence AAEYHAQRLKAVIVIQTYYRQWHA [IQUB] with its measured protein stability index.
*A* 4.97

*Q* Respond only with protein stability index recorded for SCAGGRLFQQSCPTGLVFSNSCKC [CHIT1]
*A* 2.98

*Q* Provide protein stability index value for the following sequence: ASAQKFSSRSTVPTPAKRRSSALW [NET1]
*A* 3.41

*Q* Find the measured protein stability index of EVEGVKNIMTQNVERILARGENLE [VAMP8] and report it.
*A* 4.68

*Q* Determine its reported protein stability index: GPCEGPSKEDKDLDSSEGSSQEDE [SPANXN3]
*A* 5.68

*Q* Provide one value: measured protein stability index of QAPPQDSSNKKEKKVLNHGYDDDN [DYRK1B]
*A* 5.61

*Q* Hello, please tell me recorded protein stability index for this one: DICLAQLEELGTLNVFQTVSRMRT [PTPN9]
*A* 2.97

---

PROCEDURE_SUMMARY: protein stability index of a GFP-peptide fusion (GPS, HEK-293T) (PSI 1-6); higher = more stable
PARTICULARS: treatment: MLN4924 1 uM, 8 h; c terminus: a fixed tail appended
# protein stability index per entry

INSERT INTO assay_data (sequence_code, value_observed) VALUES
  ('MELSWGQSPGQPVQGGSEAWGPGT [TEX19]', 4.06),
  ('MGGAVSAGEDNDELIDNLKEAQYI [PCMTD2]', 4.95),
  ('SQKDLENDPSVNSQAQETTIIASN [TOR1AIP2]', 5.28),
  ('WGKGARGRLGRRDEDAGLPRPVQL [NEK8]', 3.48),
  ('MAAEIHSRPQSSRPVLLSKIEGHQ [WDFY1]', 3.88),
  ('ILDICEDNVPDPKDVKERFSGSLV [TMEM175]', 4.06),
  ('LLALAGAVQRLEGALWGLQAQAVQ [SCARA5]', 3.48),
  ('WVYKNKLIFFGGYGYLPEDKVLGT [KLHDC2]', 2.88);

*Q* Note down protein stability index recorded for EYLSFFDFSGLTLDGALRTFLKAF [PSD2]
*A* 2.01

*Q* Determine from records and report protein stability index for ELKEKEATLCLEFLLQNDANPSIR [ANKRD44]
*A* 3.25

*Q* Give reported protein stability index value for DDKTDKRIFTFICKDSESNKHLCY [GULP1]
*A* 2.51

*Q* Give recorded protein stability index. LPPCLLPLSPPTAPDRATAVATAS [TRIB3]
*A* 4.35

*Q* Write down protein stability index measured for item EDSNWEKSPDNEDSGDSKDIRLTL [GOLPH3L]
*A* 5.37

*Q* Retrieve protein stability index measured for DSFDKFDFCEPSFVTGNCLEISPD [PCMTD2] and print it.
*A* 4.66

*Q* Retrieve protein stability index measured for QFPYVEFTGRDSITCLTCQGTGYI [TMEM106C] and print it.
*A* 3.09

*Q* Quote protein stability index reported for SAFSSRGSLSLSFEREPSTSDLGT [RIPK4] please.
*A* 4.13

*Q* Provide measured protein stability index value, entry: YLASLCMCFGPKKVKPAEAETAGA [SLC29A1]
*A* 2.83

*Q* Tell me measured protein stability index for TLPVSGNLLDVYSSQGVATPAITV [TFE3] please.
*A* 2.73

*Q* Using known records, supply protein stability index for EAIKGLNGQKPLGAAEPITVKFAN [ELAVL3]
*A* 4.06

*Q* Tell me its protein stability index given FGRKDHLTRHTKKTHSQELMKESL [PLAGL1] as the entry.
*A* 3.77

*Q* Let me know recorded protein stability index for AEKRQIGDQEGPRPARSTLDELLG [FBF1] , thanks.
*A* 4.93

*Q* State its protein stability index for this sequence: TNFHGVCMFCNEEFLGNRSVILNH [ZNF277]
*A* 2.11

*Q* Could you please provide reported protein stability index for IGRDPPAETQPQNPPAQPAPNAWQ [CLPTM1] ? Thanks!
*A* 5.02

*Q* Supply reported protein stability index belonging to this sequence: LSLLGKLTISAAFNIVYIYTSELY [SLC22A15]
*A* 3.25

*Q* Please report the measured protein stability index for NSVNDQTKILVVNAAYFVGKWMKK [SERPINB5]
*A* 2.48

*Q* Let me know recorded protein stability index for GDLGDPFHLGLEDILMEEEEGVVG [TFE3] , thanks.
*A* 5.3

---

PROCEDURE_SUMMARY: protein stability index of a GFP-peptide fusion (GPS, HEK-293T) (PSI 1-6); higher = more stable
PARTICULARS: treatment: DMSO; c terminus: a fixed tail appended
READOUT_LABEL: protein stability index
Enter a number only.

In the examples that follow, each entry is paired with its recorded protein stability index.
INSERT INTO results (sequence_code, value_observed) VALUES
  ('NPQALSPQFTGILQLLQSRTSRKF [INTS3]', 2.93),
  ('LQSLRPHDEDIKTTNVKSASRQKT [ZNF396]', 5.14),
  ('YSLVLELSDSGAFRRSLHDPDGLV [APMAP]', 2.28),
  ('VRYNAEKKKVGNYYTTPIYRFRMK [YJU2B]', 2.57),
  ('YVKYQVAIHQDPPDECGKTEFTRF [ATE1]', 2.4);

*Q* Fill in protein stability index for record LQEPGEPQGPPASPSCPEEALAAT [PXN]
*A* 5.44

*Q* Query protein stability index for LIKNFHQYSVEGGKETLTPSELRD [S100A14]
*A* 4.15

*Q* Quick one: give measured protein stability index for QATCNVHKSAFNDWFSGHLNFQIE [FADS1]
*A* 2.44

*Q* Given the sequence KSQDLAKIMADIRAQYDELARKNR [KRT18] , write its reported protein stability index.
*A* 3.05

*Q* Recall and state the measured protein stability index for KADTLKERYQKIGDTKRATPIEVL [CSNK1G3] .
*A* 3.88

*Q* Query protein stability index for FGRKDHLTRHTKKTHSQELMKESL [PLAGL1]
*A* 3.53

*Q* Find the measured protein stability index of LEECLRLLEATCPFGENAEFPADI [NFE2L1] and report it.
*A* 3.61

*Q* Quick one: give measured protein stability index for EDTHQSPEPEDEPGGPGAMTESLE [RSPH3]
*A* 5.43

Cited source: the supplement of paper PMC10567573
